Reference for the values: PubChem BioAssay (EPA / NIEHS)

Assay: BSK_3C_uPAR: BioMAP Diversity Plus: 3C Assay for Urokinase-type plasminogen activator receptor (uPAR) Biomarker Activity (AID 2282998)
Conditions: BioMAP 3C HUVEC, uPAR biomarker ELISA; actives raise or lower the signal
Active and inactive are the calls of the source. How the source made its calls: active means hit-call score of the fitted dose curve at least 0.9, where 1 is the maximum; inactive means score below 0.9.
Outcome field: choose from y = active, n = inactive

1. CNC(=O)Oc1cccc(N=CN(C)C)c1 : n
2. COP(=S)(OC)Oc1ccc([N+](=O)[O-])cc1 : y
3. CC(C)(C)C(O)C(Oc1ccc(Cl)cc1)n1cncn1 (configuration not stated) : n
4. COc1nn(CSP(=S)(OC)OC)c(=O)s1 : n
5. CCC(C)Nc1c([N+](=O)[O-])cc(C(C)(C)C)cc1[N+](=O)[O-] (configuration not stated) : y
6. CNC(=O)/C=C(\C)OP(=O)(OC)OC : n
7. O=C(NC(=O)c1c(F)cccc1F)Nc1ccc(OC(F)(F)C(F)OC(F)(F)F)c(Cl)c1 (configuration not stated) : n
8. CCS(=O)(=O)c1cccnc1S(=O)(=O)NC(=O)Nc1nc(OC)cc(OC)n1 : n
9. Oc1ccc(Cl)cc1Cc1ccccc1 : y
10. [2H]C1([2H])[n+]2ccccc2-c2cccc[n+]2C1([2H])[2H] : n

Tell me the recorded outcome of this test for CC(C)N(C(=O)COc1nnc(C(F)(F)F)s1)c1ccc(F)cc1 .
n

Tell me the recorded outcome of this test for COP(=S)(OC)Oc1ccc(SC)c(C)c1 .
n

====

Read-out: CYP2C9 (gene 1559)
Assay: LTEA_HepaRG_CYP2C9: Life Technologies and Expression Analysis (LTEA) Assay for CYP2C9 using HepaRG (AID 2283484)
Details: mRNA level, 48 h; actives raise or lower the signal
The source made the active and inactive calls. How the source made its calls: active means hit-call score of the fitted dose curve at least 0.9, where 1 is the maximum; inactive means score below 0.9.
Would you mind answering with one of these outcomes? active, inactive

1. OCCOc1ccccc1 : inactive
2. COP(=O)(OC)OC=C(Cl)Cl : inactive
3. CC1(C)C(C=C(Cl)Cl)C1C(=O)OC(C#N)c1ccc(F)c(Oc2ccccc2)c1 (stereo not given) : active
4. CC[C@H](C)[C@H]1O[C@]2(C=C[C@@H]1C)C[C@@H]1C[C@@H](C/C=C(\C)[C@@H](O[C@H]3C[C@H](OC)[C@@H](O[C@H]4C[C@H](OC)[C@@H](O)[C@H](C)O4)[C@H](C)O3)[C@@H](C)/C=C/C=C3\CO[C@@H]4[C@H](O)C(C)=C[C@@H](C(=O)O1)[C@]34O)O2 (tested in a mixture with another compound) : active

Here is another molecule to look at.
Answer briefly: the call reported for O=C(Nc1ccccc1)Nc1cnns1 in this assay.
active

====

Assay: CCTE_Shafer_MEA_acute_per_network_burst_spike_number_std: CCTE's Neural Acute Assay for Standard Deviation of Number of Spikes in a Network Burst, Shafer Lab (AID 2284020);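 further: fitted for decrease in spike-number SD versus DMSO so actives lower it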
Active and inactive are the calls of the source. Rule for the calls: active = hit-call score of the fitted dose curve at least 0.9, where 1 is the maximum; inactive = score below 0.9.
Answer with one of the outcomes class 1 (active), class 0 (inactive)

Record excerpt, results attached:
1. O=[N+]([O-])/N=C1\NCCN1Cc1ccc(Cl)nc1 : class 0
2. O=C(O)CCCOc1ccc(Cl)cc1Cl : class 0
3. CCCN(CCC)c1c([N+](=O)[O-])cc(C(F)(F)F)cc1[N+](=O)[O-] : class 0
4. COP(=S)(OC)Oc1ccc(SC)c(C)c1 : class 0
5. CNC(=O)CSP(=S)(OC)OC : class 0

In this assay, the call recorded for CC[C@H](C)[C@H]1O[C@]2(C=C[C@@H]1C)C[C@@H]1C[C@@H](C/C=C(\C)[C@@H](O[C@H]3C[C@H](OC)[C@@H](O[C@H]4C[C@H](OC)[C@@H](O)[C@H](C)O4)[C@H](C)O3)[C@@H](C)/C=C/C=C3\CO[C@@H]4[C@H](O)C(C)=C[C@@H](C(=O)O1)[C@]34O)O2 (tested in a mixture with another compound) was what?
class 1

Entry CCC(C)(C)C(=O)OC1=C(c2ccc(Cl)cc2Cl)C(=O)OC12CCCCC2 : call = ?
class 0

Hello, I am checking results. What call was entered for CNC(=O)/C=C(\C)OP(=O)(OC)OC ?
class 0
